procedure text: small molecules captured by biotinylated probe aFST – biochemical, small-molecule microarray, fluorescence 635/667, stem cell growth factor project, primary screen (AID 1086);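 note: score merges 667 nm fluorescence with signal-to-noise of each printed compound spot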
condition: higher = more signal
Label Fulfilled when composite z-score is at or above 0.4; anything below gets Not fulfilled.

| compound | assigned class |
| --- | --- |
| COc1cc(OC)c(C(O)C2C=CC3C(=O)N(c4ccccc4)C(=O)C3N2Nc2ccc(C(C)C)cc2)cc1Br (centres undefined) | Fulfilled |
| O=C1O[C@@H](c2ccccc2)[C@@H](c2ccccc2)N2[C@@H](c3ccc(OCCO)cc3)[C@]3(C(=O)Nc4ccc(C#CC5(O)CCCCCC5)cc43)[C@@H](C(=O)O)[C@H]12 | Not fulfilled |
| COC(=O)C(CC#Cc1ccc2c(c1)[C@]1(C(=O)N2)[C@H](C(=O)NC[C@H](O)c2ccccc2)[C@H]2C(=O)O[C@H](c3ccccc3)[C@H](c3ccccc3)N2[C@@H]1c1ccccc1OCCO)C(=O)OC | Not fulfilled |
| C=CCN1Cc2ccccc2[C@H]2OC(c3ccc(OCCCO)cc3)=N[C@@]2(CCS(=O)(=O)c2ccccc2)C1=O | Fulfilled |
| [N-]=[N+]=Nc1ccccc1C[C@]1(C(=O)N2CCOCC2)N=C(c2ccc(OCCCO)cc2)O[C@H]1c1ccccc1N=[N+]=[N-] | Fulfilled |
| COc1ccc([Si](C)(C)[C@H]2[C@H](CCO)O[C@@]3(C(=O)N(Cc4cccc(N5C(=O)c6ccccc6Oc6ccccc65)c4)c4ccccc43)[C@@H]2C)cc1 | Not fulfilled |
| CCCCC(O)C1C=CC2C(=O)N(c3ccccc3)C(=O)C2N1Nc1ccc(C#N)cc1 (centres undefined) | Fulfilled |
| [N-]=[N+]=NCc1ccccc1[C@@H]1OC(c2ccc(OCCCO)cc2)=N[C@]1(Cc1ccccc1N=[N+]=[N-])C(=O)NCC(O)CO (some centres undefined) | Fulfilled |
| COc1ccc(CCNC(=O)[C@@H]2c3ccccc3C(=O)N(Cc3ccccc3OC)[C@H]2c2ccc(CO)cc2)cc1 | Fulfilled |
| CN(C)CCCNC(=O)[C@@]1(Cc2ccccc2I)c2ccccc2C(=O)N(C2CCCCC2)[C@H]1c1ccc(CO)cc1 | Fulfilled |
| CCOC(=O)C[C@H]1[C@H](OC(=O)c2ccccc2-c2ccccc2)[C@@H](NC(=O)c2ccc3ccccc3c2)c2cc(OCCCO)ccc2N1C(=O)Cc1ccc(OC)cc1 | Not fulfilled |
| O=C1O[C@H](c2ccccc2)[C@H](c2ccccc2)N2[C@H]1[C@@H](C(=O)O)[C@]1(C(=O)Nc3ccc(C#CCCO)cc31)[C@H]2c1ccc(OCCO)cc1 | Not fulfilled |
| CC(C)C(CO)N1C(=O)[C@@H]2C3C(=O)OCCC/C=C\[C@H]3OC23C=CCN(Cc2ccccc2)C(=O)[C@@H]13 (some centres undefined) | Not fulfilled |

Values compiled from PubChem BioAssay.
